assay: Pharmacokinetics in mice; details: CD1, mouse, in vivo, iv, 1 mg/kg, Vss, PK parameters (mouse), Table 3
Parameter measured: Vd (L/kg)
Please respond with the number in L/kg and leave the unit unwritten.

Lookup: Field request: Vd | item: `Cc1ccc(F)c2cc(C(=O)N[C@@H]3CCC[C@H](N4CC[C@H](N(C)S(C)(=O)=O)C4)C3)[nH]c12`
Found: 8.13

Lookup: Likewise for CC(=O)N(C)C1CCN(c2cc(F)cc(NC(=O)c3cc4c(F)ccc(C)c4[nH]3)c2)C1 (centres unmarked) ?
Found: 1.04

Where do these numbers come from? They come from paper PMC8521618.
